Ref: PubChem BioAssay (NCATS)

- Test system: Zika virus NS2B-NS3 protease (unlinked complex)
- EXPERIMENT_SUMMARY: Primary screen GU Rhodamine qHTS for Zika virus inhibitors: Unlinked NS2B-NS3 protease assay (AID 1347159); further: nearly all actives have a fitted effect of over 60% in size
- CONDITION_SUMMARY: Recombinant ZIKV NS2B-NS3 protease, Rhodamine110 substrate fluorescence; series mostly up to 107 µM
Inconclusive results are not listed. Activity calls are given as the source filed them. The call rests on the fitted dose curve; in most records, active means well fitted inhibition curve with a large enough effect; inconclusive means small, poorly fitted or top-dose-only effect; inactive means no such curve, though single readings can be large or run the other way. Where a SMILES comes first, the peptide text is derived from it. The star is where a group is joined. AMC = Cc1cc(=O)oc2cc(N*)ccc12; Cbz = O=C(OCc1ccccc1)*
Outcomes: t for active, f for inactive

>>> answer_label("COc1ccc(C2(O)c3ccccc3NC(=O)C2OC)cc1 (configuration not stated)")
"f"
>>> answer_label("CC1=C2CC(=O)C(C)CC/C=C(\\C)CC2(O)OC1=O (configuration not stated)")
"f"
>>> answer_label("Cc1ccc(-c2c(-c3nn(C)c4ncnc(N5CC[C@H](N6CCCCC6)C5)c34)cnn2C)cc1")
"f"
>>> answer_label("C=C1C(OC(C)=O)CCC2(C)CCC(C(C)(C)O)CC12 (configuration not stated)")
"f"
>>> answer_label("CCOC(=O)COc1ccc2c(c1)C[C@@H](NC[C@H](O)c1cccc(Cl)c1)CC2")
"f"
>>> answer_label("C=C1CCC(OC(C)=O)C2(C)CC3OC(=O)C(C)=C3CC12 (configuration not stated)")
"f"
>>> answer_label("CC(=O)OCC1=C[C@@H]2OC(=O)C3=CO[C@@H](O[C@@H]4O[C@H](CO)[C@@H](O)[C@H](O)[C@H]4O)[C@H]1[C@@H]32")
"f"
>>> answer_label("C=C1[C@H](OC(C)=O)[C@H]2[C@@H](OC(C)=O)C(C)C[C@]2(OC(C)=O)C(=O)[C@H](C)/C=C/C(C)(C)C(=O)[C@H](OC(=O)C(C)C)[C@H]1OC(C)=O (some centres not stated)")
"f"
>>> answer_label("C=Cc1ccc(O[C@@H]2O[C@H](CO[C@@H]3O[C@@H](C)[C@H](O)[C@@H](O)[C@H]3O)[C@@H](O)[C@H](O)[C@H]2O)cc1")
"f"
>>> answer_label("c1cc(-c2cc(C3CCNCC3)[nH]n2)ccn1")
"f"
>>> answer_label("CC1=C2CC(C)(C)CC2C(O)C2=C(C1)C(=O)OC2O (configuration not stated)")
"f"
>>> answer_label("CC(O)C1CCC2C3CCC4CC(OC5OC(C(=O)O)C(O)C(O)C5O)CCC4(C)C3CCC12C (configuration not stated)")
"f"
>>> answer_label("C=C1[C@H](OC(C)=O)[C@H]2[C@@H](OC(=O)c3ccccc3)[C@@H](C)C[C@]2(O)[C@@H](OC(C)=O)[C@H](C)/C=C/C(C)(C)C(=O)[C@H](OC(C)=O)[C@H]1OC(C)=O")
"f"
>>> answer_label("CC(NC(=O)CC(=O)O)C(=O)Nc1ccccc1C(N)=O (configuration not stated)")
"f"
>>> answer_label("CC1(C)CC=C(C#Cc2ccccc2)c2cc(/C=C/c3ccc(C(=O)O)cc3)ccc21")
"t"
>>> answer_label("COc1ccc(NC(=O)c2ccc(-c3ccc(C(N)=O)cc3C)cc2)cc1N1CCN(C)CC1")
"f"
>>> answer_label("CCC(C)C(=O)O[C@H]1[C@@H](O[C@H]2O[C@H](CO)[C@@H](O)[C@H](O)[C@H]2O)O[C@H](CO)[C@@H](O)[C@@H]1O (some centres not stated)")
"f"
>>> answer_label("Cc1ncc(NC(=O)c2ccc(CN3CCN(C)CC3)c(C(F)(F)F)c2)cc1Nc1nccc(-c2cccnc2)n1")
"f"
>>> answer_label("C[C@@H]1O[C@@H](O[C@H]2[C@H](Oc3cc(O)c(C(=O)CCc4ccc(O)cc4)c(O)c3)O[C@H](CO)[C@@H](O)[C@@H]2O)[C@H](O)[C@H](O)[C@H]1O")
"f"
>>> answer_label("Cc1ccccc1-n1nc(-c2c(-c3ccc(F)cc3)nn3c2NC[C@@H](CO)C3)ccc1=O")
"f"
>>> answer_label("Cc1cc(=O)oc2cc(NC(=O)[C@H](CCC(=O)O)NC(=O)[C@H](CC(C)C)NC(=O)[C@H](CC(C)C)NC(=O)OCc3ccccc3)ccc12 (Cbz-Leu-Leu-Glu-{AMC})")
"f"
>>> answer_label("COc1ccc(C(=O)CC(=O)O)c2c1C=CC(C)(C)O2")
"f"
>>> answer_label("CC(C)(O)/C=C/C(=O)[C@](C)(O)[C@H]1[C@H](O)C[C@@]2(C)[C@@H]3CC=C4[C@@H](C=C(O[C@@H]5O[C@H](CO)[C@@H](O)[C@H](O)[C@H]5O)C(=O)C4(C)C)[C@]3(C)C(=O)C[C@]12C")
"f"
>>> answer_label("COc1cccc(OC)c1-c1ccc(C[C@H](NC(=O)c2c(Cl)cccc2Cl)C(=O)O)cc1")
"f"
>>> answer_label("CCCN(CCN1CCN(c2ccccc2OC)CC1)C1CCc2ncsc2C1 (configuration not stated)")
"f"
>>> answer_label("CCCCOc1nc(N)c2c(n1)N(Cc1cccc(CN3CCCC3)c1)CC(=O)N2")
"f"
>>> answer_label("CCC(C)(C)C1CCc2c(sc(NC(=O)c3ccc(Br)cc3)c2C#N)C1 (configuration not stated)")
"f"
>>> answer_label("CC1(C)C[C@H](O)C[C@@]2(C)[C@H]1[C@H](O)C=C1COC(=O)[C@@]12O")
"f"
>>> answer_label("O=C(CCCCC1CCCCC1)N1CCC(c2cnc[nH]2)CC1")
"f"
>>> answer_label("Cc1ccccc1N1CCN(S(=O)(=O)C[C@]23CC[C@H](C[C@@H]2NC(=O)[C@@H](N)CCS(C)(=O)=O)C3(C)C)CC1")
"f"
>>> answer_label("CC1=C2C[C@H]3OC(=O)[C@H](O)[C@@]4(O)[C@@H](C)[C@@H](O)[C@H](O)C([C@@]2(C)[C@H](O)[C@@H](O)C1)[C@@]34C (some centres not stated)")
"f"
>>> answer_label("O=C(c1ccc(Cl)c([N+](=O)[O-])c1)N1CCN(c2ccccc2F)CC1")
"f"
